Tested on: HeLa cells
Experiment: Compound screen by flow cytometry: HeLa cell count as surrogate readout of cell viability (z-scoreHeLa)
Format: cell-based, human
Details: PKIS compounds raw data; replicate 2; HeLa cell count
Procedure: The cells were resuspended in cell culture medium without antibiotics, seeded with 10,000 cells/well into Costar flat-bottom 96-well plates (Corning, Amsterdam, the Netherlands), and were incubated overnight at 37°C/5% CO2. […] The calculated mean MOI throughout all experiments was 6.8 ± 4.6 (mean ± SD). […] HeLa cells were harvested by trypsinization and fixed with 1% paraformaldehyde. Samples were measured on a FACSLyric with HTS extension (BD Biosciences). […]
Note to self: use Fulfilled only for cell count rep 2 readings below 6000; a reading exactly at 6000 still gets Not fulfilled.

Compound: CS(=O)(=O)CCNCc1ccc(-c2ccc3ncnc(Nc4ccc(OCc5ccccc5)c(Cl)c4)c3c2)o1 [GW574783B]
Discrete label: Not fulfilled
//
Compound: COc1cc(/C=N/Nc2ncnc3[nH]ncc23)ccc1O [GW578748X]
Discrete label: Fulfilled
//
Compound: CCNC(=O)O[C@H]1CN[C@H](C#Cc2cc3ncnc(Nc4ccc(OCc5cccc(F)c5)c(Cl)c4)c3s2)C1 [GSK192082A]
Discrete label: Fulfilled
//
Compound: CN1C(=O)C(Nc2ccccc2)=C(c2ccccc2)C1=O
Discrete label: Not fulfilled
//
Compound: Cc1ccc(NC(=O)c2ccnc(N3CCN(C)CC3)c2)cc1-c1ccc(C(=O)NCC2CC2)cc1 [GW775604X]
Discrete label: Not fulfilled

---

system: intracellular MRSA; type: cell-based, Staphylococcus aureus; details: compound screen, MRSA-infected HeLa cells, replicate 2

Compound: Cc1c(O)cccc1Nc1ccnc2ccc(C(F)(F)F)cc12 [GW466413A]
Assay system: intracellular MRSA
z-scoreMRSA+ rep 2: 0.0454
--
Compound: Cc1cccc2c1NC(=O)C2=NNc1ccc(S(N)(=O)=O)cc1 [GW282536X]
Assay system: intracellular MRSA
z-scoreMRSA+ rep 2: -0.42
--
Compound: Cc1ccnc2ccc(-c3sc(N)nc3-c3ccccn3)nc12 [GW777257X]
Assay system: intracellular MRSA
z-scoreMRSA+ rep 2: -0.88
--
Compound: Cc1cc(N2CCC(NS(=O)(=O)c3ccc(F)cc3)CC2)nc(Nc2cccc(C#N)c2)n1 [GSK1653537A]
Assay system: intracellular MRSA
z-scoreMRSA+ rep 2: -0.49
--
Compound: Fc1cc(Cl)ccc1Nc1ccnc2cc(-c3ccc(CN4CCCCC4)o3)ccc12 [GW560116X]
Assay system: intracellular MRSA
z-scoreMRSA+ rep 2: 0.89
--
Compound: COc1ccc(-c2oc3ncnc(N)c3c2-c2ccc(NC(=O)Nc3cc(C(F)(F)F)ccc3F)cc2)cc1 [GW768505A]
Assay system: intracellular MRSA
z-scoreMRSA+ rep 2: -0.0319
--
Compound: O=C1Nc2ccc(I)cc2C1=Cc1cc(Br)c(O)c(Br)c1 [GW305074X]
Assay system: intracellular MRSA
z-scoreMRSA+ rep 2: -1.22
--
Compound: CCNC(=O)O[C@H]1CN[C@H](C#Cc2cc3ncnc(Nc4ccc(OCc5cccc(F)c5)c(Cl)c4)c3s2)C1 [GSK192082A]
Assay system: intracellular MRSA
z-scoreMRSA+ rep 2: -2.02
--
Compound: CS(=O)(=O)CCNCc1nc(-c2ccc3ncnc(Nc4ccc(OCc5ccccc5)c(Cl)c4)c3c2)cs1 [GW582764A]
Assay system: intracellular MRSA
z-scoreMRSA+ rep 2: -0.83
